Can you tell me Fluorescence brightness, 100 nM DFHBI-1T for the items I'm about to list?
# PROCEDURE_DETAILS: Fluorescence brightness with DFHBI-1T
# Assay type: biochemical
# SETTINGS: normalized 0 to 1 across all three chromophores; average ± SD of two protein concentrations

The molecule listed as mFAP2b: SEQ ID NO:69; mFAP2.5 with V67I (protein, (1)..(1) optionally absent) MSRAAQLLPGTWQVTMTNEDGQTSQGQWHFQPRSPYTMDIVAQGTISDGRPIVGYGKATVKTPDTLDIDITYPSLGNIKAQGQITMDSPTQFKWDATTKGENDFHGRLTGTLQRQE shows Fluorescence brightness, 100 nM DFHBI-1T equal to 0.01 ± 0.0

response.value for mFAP2.1: SEQ ID NO:40 (protein, (1)..(1) optionally absent) MSRAAQLLPGTWQVTMTNEDGQTSQGQMHFQPRSPYTMDVVAQGTISDGRTIVGYGKVTVKTPDTLDVDITYPSLGNIKAQGQITMDSPTQFKFDATTKGAGNFTGRLTGTLQRQE (field: Fluorescence brightness, 100 nM DFHBI-1T) = 0.34 ± 0.01

Sample mFAP1: SEQ ID NO:33; variant of b11L5F.2 (protein, (1)..(1) optionally absent) MSRAAQLLPGTWQTTMTNEDGQTSQGQMHFQPRSPYTLDVVAQGTISDGRPISGYGKVTVKTDDTLDVDITYPSLGNIKVQGQVTMDSPTQFKFDATTSDGKKLTGTLQRQE ; Fluorescence brightness, 100 nM DFHBI-1T observed: 0.01 ± 0.0

GET /value?item= mFAP2.4: SEQ ID NO:59 (protein, (1)..(1) optionally absent) MSRAAQLLPGTWQVTMTNEDGQTSQGQMHFQPRSPYTMDIVAQGTISDGRPIVGYGKATVKTPDTLDVDITYPSLGNIKAQGQITMDSPTQFKFDATTKGAGNFTGRLTGTLQRQE &field=Fluorescence brightness, 100 nM DFHBI-1T returns 0.01 ± 0.0

GET /value?item= mFAP2: SEQ ID NO:38; variant of b11L5F.1 with 6-residue insertion in the seventh β-turn (protein, (1)..(1) optionally absent) MSRAAQLLPGTWQVTMTNEDGQTSQGQMHFQPRSPYTMDVVAQGTISDGRPISGYGKVTVKTPDTLDVDITYPSLGNIKAQGQITMDSPTQFKFDATTKGAGNFTGRLTGTLQRQE &field=Fluorescence brightness, 100 nM DFHBI-1T returns 0.15 ± 0.01

For record mFAP2a: SEQ ID NO:66 (protein, (1)..(1) optionally absent) MSRAAQLLPGTWQATFTNEDGQTSQGQWHFQPRSPYTMDIVAQGTISDGRPIVGYGKATVKTPDTLDIDITYPSLGNIKAQGQITMDSPTQFKWDATTKGENDFHGRLTGTLQRQE the listed Fluorescence brightness, 100 nM DFHBI-1T is 0.59 ± 0.06
